measured_on: DNMT1 (Homo sapiens, UniProt P26358)
Sequence (P26358 whole entry): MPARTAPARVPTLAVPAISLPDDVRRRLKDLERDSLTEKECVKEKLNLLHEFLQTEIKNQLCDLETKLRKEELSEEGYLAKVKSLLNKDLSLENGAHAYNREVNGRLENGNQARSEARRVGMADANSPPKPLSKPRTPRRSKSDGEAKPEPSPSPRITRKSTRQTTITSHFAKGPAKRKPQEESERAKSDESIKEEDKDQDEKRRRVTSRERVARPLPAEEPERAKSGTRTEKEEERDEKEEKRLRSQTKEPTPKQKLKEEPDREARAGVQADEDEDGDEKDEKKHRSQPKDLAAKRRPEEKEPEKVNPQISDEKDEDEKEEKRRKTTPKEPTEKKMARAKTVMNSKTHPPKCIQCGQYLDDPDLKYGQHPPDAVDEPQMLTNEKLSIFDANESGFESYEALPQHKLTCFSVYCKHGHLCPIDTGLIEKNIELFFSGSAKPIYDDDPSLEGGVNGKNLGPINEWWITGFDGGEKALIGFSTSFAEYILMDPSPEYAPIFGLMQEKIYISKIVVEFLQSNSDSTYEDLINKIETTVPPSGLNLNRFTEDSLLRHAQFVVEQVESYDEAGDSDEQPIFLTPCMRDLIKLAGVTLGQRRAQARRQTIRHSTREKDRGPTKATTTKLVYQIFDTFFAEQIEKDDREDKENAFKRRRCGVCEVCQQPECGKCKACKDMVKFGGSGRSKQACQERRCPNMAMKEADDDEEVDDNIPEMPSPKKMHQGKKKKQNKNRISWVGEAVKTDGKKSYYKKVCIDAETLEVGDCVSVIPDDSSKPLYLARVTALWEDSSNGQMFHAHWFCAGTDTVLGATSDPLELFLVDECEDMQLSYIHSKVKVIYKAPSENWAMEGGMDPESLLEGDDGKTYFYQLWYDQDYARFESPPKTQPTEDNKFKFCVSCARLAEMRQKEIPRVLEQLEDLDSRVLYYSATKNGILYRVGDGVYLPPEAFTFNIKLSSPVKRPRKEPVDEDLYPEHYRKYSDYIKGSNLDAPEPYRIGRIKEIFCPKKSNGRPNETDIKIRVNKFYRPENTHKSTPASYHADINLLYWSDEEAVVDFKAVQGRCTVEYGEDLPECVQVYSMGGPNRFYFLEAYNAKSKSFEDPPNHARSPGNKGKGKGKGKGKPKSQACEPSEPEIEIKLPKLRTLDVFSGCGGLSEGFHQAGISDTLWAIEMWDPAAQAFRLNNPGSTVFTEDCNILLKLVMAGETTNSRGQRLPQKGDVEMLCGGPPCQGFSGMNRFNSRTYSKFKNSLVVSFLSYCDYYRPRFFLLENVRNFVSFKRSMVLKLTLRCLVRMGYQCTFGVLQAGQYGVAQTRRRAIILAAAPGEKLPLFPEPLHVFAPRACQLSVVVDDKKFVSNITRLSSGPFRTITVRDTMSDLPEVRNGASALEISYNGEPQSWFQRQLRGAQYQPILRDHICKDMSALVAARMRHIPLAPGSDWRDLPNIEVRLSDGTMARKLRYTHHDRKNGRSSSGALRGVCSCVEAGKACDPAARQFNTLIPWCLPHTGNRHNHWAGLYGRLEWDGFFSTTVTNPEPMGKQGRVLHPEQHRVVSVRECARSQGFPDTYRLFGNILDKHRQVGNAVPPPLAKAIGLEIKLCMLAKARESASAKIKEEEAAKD
experimental_protocol: Selective depletion of DNMT1 by Western blot in treated HCT116 cells
Type: cell-based
Set-up: Protein extracts (equivalent to 100 μg) were isolated from HCT116 cells; endogenous in cells; host or cells: HCT116
condition_info: HCT-116, 10 μM
Counter-ions that a name gives are not always drawn.
Classify: MET when % DNMT1 protein level remaining at 10 µM is strictly less than 70%; NOT MET when % DNMT1 protein level remaining at 10 µM is not.

Some solved entries appear below for comparison.
{"compound": "CN(C)c1ccc2nccc(Nc3ccc(NC(=O)c4cccc(Nc5cc[n+](C)cc5)c4)cc3)c2c1", "label_value": "MET"}
{"compound": "CN(C)c1ccc2nccc(Nc3ccc(NC(=O)c4ccc(Nc5cc[n+](C)cc5)cc4)cc3)c2c1", "label_value": "NOT MET"}
{"compound": "Cc1cc(Nc2ccc(NC(=O)c3ccc(Nc4ccnc5ccc(N(C)C)cc45)cc3)cc2)nc(N)n1.Cl [Cpd. P, hydrochloride]", "label_value": "NOT MET"}

Next up:
Find out if reported % DNMT1 protein level remaining at 10 µM for Cc1cc(Nc2ccc(C(=O)Nc3ccc(Nc4ccnc5ccccc45)cc3)cc2)nc(N)n1 [Cpd. GG1, dihydrochloride] is less than 70%
MET

---

Where a name gives a salt, the structure may show the parent alone.
What melting point was measured for each of the following?

Example entries begin here.
{"molecule": "Cc1cc(Nc2ccc(C(=O)Nc3ccc(Nc4ccnc5ccc(N(C)C)cc45)cc3)cc2)nc(N)n1 (as salt: hydrochloride) [Cpd. HH, dihydrochloride]", "melting point": "> 300 °C"}
{"molecule": "C[n+]1ccc(Nc2cccc(NC(=O)c3ccc(Nc4ccnc5ccc([N+](=O)[O-])cc45)cc3)c2)cc1 (as salt: chloride) [Cpd. F]", "melting point": "273 to 277 °C"}

Hello, I would appreciate it if you could give melting point for each entry below.
1. C[n+]1ccc(Nc2ccc(NC(=O)c3ccc(Nc4ccnc5cc(N)ccc45)cc3)cc2)cc1 [Cpd. W]
2. C[n+]1ccc(Nc2cccc(NC(=O)c3ccc(Nc4ccnc5cc(N)ccc45)cc3)c2)cc1 [Cpd. V]
3. C[n+]1ccc(Nc2cccc(NC(=O)c3ccc(Nc4ccnc5ccccc45)cc3)c2)cc1 (as salt: chloride) [Cpd. A]
4. Cc1cc(Nc2cccc(C(=O)Nc3ccc(Nc4ccnc5ccccc45)cc3)c2)nc(N)n1 (as salt: hydrochloride) [Cpd. FF1, dihydrochloride]

1: 242 to 245 °C; 2: 281 to 285 °C; 3: 253 to 257 °C; 4: > 300 °C

Hello, I would appreciate it if you could give melting point for each entry below.
1. Cc1cc(Nc2ccc(C(=O)Nc3ccc(Nc4ccnc5ccc([N+](=O)[O-])cc45)cc3)cc2)nc(N)n1 (as salt: hydrochloride) [Cpd. GG4, dihydrochloride]
2. Cc1cc(Nc2ccc(C(=O)Nc3ccc(Nc4ccnc5cc([N+](=O)[O-])ccc45)cc3)cc2)nc(N)n1 (as salt: hydrochloride) [Cpd. GG5, dihydrochloride]
3. C[n+]1ccc(Nc2ccc(NC(=O)c3ccc(Nc4ccnc5ccccc45)cc3)cc2)cc1 (as salt: hydrochloride) [Cpd. B]
4. C[n+]1ccc(Nc2cccc(C(=O)Nc3ccc(Nc4ccnc5ccc([N+](=O)[O-])cc45)cc3)c2)cc1 [Cpd. J]
5. Cc1cc(Nc2cccc(C(=O)Nc3ccc(Nc4ccnc5ccc([N+](=O)[O-])cc45)cc3)c2)nc(N)n1 (as salt: hydrochloride) [RR2, dihydrochloride]
6. Nc1cc(Nc2cccc(C(=O)Nc3ccc(Nc4ccnc5ccc([N+](=O)[O-])cc45)cc3)c2)nc(N)n1 (as salt: hydrochloride) [Cpd. RR1, dihydrochloride]

1: 295 to 300 °C; 2: > 300 °C; 3: > 300 °C; 4: > 300 °C; 5: > 300 °C; 6: > 300 °C
